- TARGET SYSTEM: Human PI3K beta (Homo sapiens)
- Construct: His (N); host or cells: SF9 insect cells (baculovirus)
- Sequence (P42338 whole entry): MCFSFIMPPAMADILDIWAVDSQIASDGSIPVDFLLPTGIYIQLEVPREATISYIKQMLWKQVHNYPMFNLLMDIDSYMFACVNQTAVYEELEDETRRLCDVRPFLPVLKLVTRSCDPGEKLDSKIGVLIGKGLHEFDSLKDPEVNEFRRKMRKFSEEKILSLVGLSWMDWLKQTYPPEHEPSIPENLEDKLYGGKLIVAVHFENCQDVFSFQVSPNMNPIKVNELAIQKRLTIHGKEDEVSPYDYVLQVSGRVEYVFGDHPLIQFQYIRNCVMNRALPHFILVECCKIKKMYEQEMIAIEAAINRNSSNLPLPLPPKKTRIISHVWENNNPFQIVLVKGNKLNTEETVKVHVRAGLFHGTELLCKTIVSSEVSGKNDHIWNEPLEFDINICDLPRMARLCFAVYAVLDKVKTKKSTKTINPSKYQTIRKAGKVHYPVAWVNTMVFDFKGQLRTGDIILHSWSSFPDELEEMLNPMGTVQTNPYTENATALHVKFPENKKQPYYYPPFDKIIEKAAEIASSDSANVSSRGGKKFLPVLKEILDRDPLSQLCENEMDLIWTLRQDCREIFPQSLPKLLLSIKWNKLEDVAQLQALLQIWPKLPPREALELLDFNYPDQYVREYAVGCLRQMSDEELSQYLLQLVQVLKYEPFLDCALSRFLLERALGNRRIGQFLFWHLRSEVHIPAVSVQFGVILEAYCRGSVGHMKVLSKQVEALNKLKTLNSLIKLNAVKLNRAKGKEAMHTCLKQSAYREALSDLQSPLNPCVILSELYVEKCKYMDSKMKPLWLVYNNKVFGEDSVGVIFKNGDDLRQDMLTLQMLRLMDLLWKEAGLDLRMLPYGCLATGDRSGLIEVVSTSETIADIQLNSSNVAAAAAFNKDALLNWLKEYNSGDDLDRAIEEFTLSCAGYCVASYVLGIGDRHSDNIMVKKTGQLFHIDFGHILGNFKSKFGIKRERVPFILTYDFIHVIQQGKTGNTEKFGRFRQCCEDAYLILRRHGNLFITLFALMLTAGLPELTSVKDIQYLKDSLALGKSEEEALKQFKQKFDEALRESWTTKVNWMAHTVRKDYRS
- Sequence (P27986 whole entry partner): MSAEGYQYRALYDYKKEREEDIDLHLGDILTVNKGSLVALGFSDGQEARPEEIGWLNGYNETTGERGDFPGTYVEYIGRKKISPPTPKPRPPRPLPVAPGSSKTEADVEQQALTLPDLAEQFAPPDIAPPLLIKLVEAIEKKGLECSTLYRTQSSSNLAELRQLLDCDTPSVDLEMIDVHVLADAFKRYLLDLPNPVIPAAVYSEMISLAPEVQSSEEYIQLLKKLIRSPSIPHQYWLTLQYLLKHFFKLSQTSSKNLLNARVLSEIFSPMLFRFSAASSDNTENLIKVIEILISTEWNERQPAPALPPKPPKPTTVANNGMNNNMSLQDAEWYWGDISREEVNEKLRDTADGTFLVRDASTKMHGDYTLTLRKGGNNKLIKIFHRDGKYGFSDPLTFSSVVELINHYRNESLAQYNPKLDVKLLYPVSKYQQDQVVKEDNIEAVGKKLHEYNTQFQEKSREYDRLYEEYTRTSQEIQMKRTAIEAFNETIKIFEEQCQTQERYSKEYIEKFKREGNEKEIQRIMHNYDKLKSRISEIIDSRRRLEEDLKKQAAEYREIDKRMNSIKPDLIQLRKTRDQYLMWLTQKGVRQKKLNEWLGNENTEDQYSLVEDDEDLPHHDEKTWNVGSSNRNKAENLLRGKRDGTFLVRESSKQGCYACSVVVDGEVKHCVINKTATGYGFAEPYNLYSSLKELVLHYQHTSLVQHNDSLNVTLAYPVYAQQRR
- EXPERIMENT SUMMARY: Human PI3K beta enzyme assay (HTRF)
- Type: biochemical
- CONDITION NOTES: concentration not given; b1387 states 1.1 μM for PI3K α and β; read-out: p110 beta Percent Inhibition
ATTRIBUTE MEASURED: inhibition at 1.1 µM (%)

(1) c1ccc2cc(Cc3cc(N4CCOCC4)sc3-c3nnn[nH]3)ccc2c1 [Compound 356]
(2) Nc1nccc(-c2sc(-c3ccncc3)nc2Cc2ccc(Cl)cc2)n1 [Compound 150]
In: Could you tell me which of these two has the smaller inhibition at 1.1 µM figure? First: 1 Second: 2 Refer to your chosen item by its label in the answer.
Out: 2

(a) CC(=O)Nc1cc(-c2cc(C(c3ccc(Cl)cc3)N3CC(N)C3)c(-c3nnc[nH]3)s2)ccn1 (centres unmarked) [Compound 200]
(b) O=C(O)c1cc(-c2sc(-c3ccncc3)nc2Cc2ccc(Cl)cc2)[nH]n1 [Compound 262]
(c) N#Cc1c(N2CCOCC2)sc(C(=O)O)c1C(F)(F)c1ccc(Cl)cc1 [Compound 358]
In: Let's sort these by inhibition at 1.1 µM, smallest first. Go ahead? Answer with the labels in sequence, matching the requested order.
Out: c, b, a
